ASSAYED_TARGET: baculovirus-expressed ALK (Homo sapiens, UniProt Q9UM73)
Construct: host or cells: baculovirus expression system
Sequence (Q9UM73 19-1620): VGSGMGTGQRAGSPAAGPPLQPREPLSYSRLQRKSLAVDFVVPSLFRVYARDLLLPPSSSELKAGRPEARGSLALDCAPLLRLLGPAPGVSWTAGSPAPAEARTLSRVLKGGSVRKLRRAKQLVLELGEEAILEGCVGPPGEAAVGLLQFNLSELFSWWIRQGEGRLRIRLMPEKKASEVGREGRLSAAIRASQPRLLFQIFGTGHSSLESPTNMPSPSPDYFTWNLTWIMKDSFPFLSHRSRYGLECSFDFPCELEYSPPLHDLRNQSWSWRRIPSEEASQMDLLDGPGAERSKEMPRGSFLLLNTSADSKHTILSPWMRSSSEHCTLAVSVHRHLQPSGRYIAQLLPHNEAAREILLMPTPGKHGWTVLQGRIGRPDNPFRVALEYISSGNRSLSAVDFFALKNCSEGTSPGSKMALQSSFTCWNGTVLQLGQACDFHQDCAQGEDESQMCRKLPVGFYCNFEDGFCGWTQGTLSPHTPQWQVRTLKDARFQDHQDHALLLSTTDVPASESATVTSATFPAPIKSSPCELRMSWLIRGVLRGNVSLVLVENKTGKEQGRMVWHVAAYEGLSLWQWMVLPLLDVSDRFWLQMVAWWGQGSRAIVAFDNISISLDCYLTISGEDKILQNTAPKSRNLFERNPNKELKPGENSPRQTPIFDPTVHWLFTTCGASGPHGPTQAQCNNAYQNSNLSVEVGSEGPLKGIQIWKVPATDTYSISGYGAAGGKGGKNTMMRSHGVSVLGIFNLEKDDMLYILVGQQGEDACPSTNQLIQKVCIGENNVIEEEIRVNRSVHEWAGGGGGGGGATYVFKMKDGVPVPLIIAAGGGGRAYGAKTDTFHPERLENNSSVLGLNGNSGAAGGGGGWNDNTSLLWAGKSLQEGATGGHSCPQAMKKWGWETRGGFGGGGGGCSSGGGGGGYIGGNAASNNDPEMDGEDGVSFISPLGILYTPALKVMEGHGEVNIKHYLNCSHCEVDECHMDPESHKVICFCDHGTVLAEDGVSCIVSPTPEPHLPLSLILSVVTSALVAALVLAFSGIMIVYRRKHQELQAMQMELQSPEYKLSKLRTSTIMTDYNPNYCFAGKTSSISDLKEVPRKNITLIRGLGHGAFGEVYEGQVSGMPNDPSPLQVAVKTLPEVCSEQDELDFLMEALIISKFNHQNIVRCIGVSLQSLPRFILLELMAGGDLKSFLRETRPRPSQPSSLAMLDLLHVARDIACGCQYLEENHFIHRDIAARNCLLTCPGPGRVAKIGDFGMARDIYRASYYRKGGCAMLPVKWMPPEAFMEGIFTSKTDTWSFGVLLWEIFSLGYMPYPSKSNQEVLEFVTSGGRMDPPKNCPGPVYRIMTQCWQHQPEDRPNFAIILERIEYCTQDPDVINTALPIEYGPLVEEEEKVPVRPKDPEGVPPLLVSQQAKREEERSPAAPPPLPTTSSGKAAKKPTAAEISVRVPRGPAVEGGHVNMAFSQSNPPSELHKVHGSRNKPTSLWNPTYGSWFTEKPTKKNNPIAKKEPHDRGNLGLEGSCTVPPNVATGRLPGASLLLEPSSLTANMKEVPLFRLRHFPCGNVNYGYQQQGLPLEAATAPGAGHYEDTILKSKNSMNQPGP
EXPERIMENTAL_PROTOCOL: ALK Kinase Assay (ELISA-type, time-resolved fluorescence)
Format: biochemical
STATED_CONDITIONS: ALK kinase inhibition, 1 μM ATP; read-out: ALK Activity
MEASURE: IC50

1. CC(C)[C@H](Nc1nc(Nc2ccc3c(c2)CC(=O)N(C)CC3)ncc1Cl)C(N)=O :: 1 to 10 µM
2. CCN1C(=O)CN(CCO)Cc2ccc(Nc3ncc(Cl)c(Nc4c(F)cccc4C(=O)NC)n3)cc21 :: 0.1 to 1 µM
3. CNC(=O)c1ccc2c(c1Nc1nc(Nc3ccc4c(c3)NC(=O)CCC4)ncc1Cl)OCO2 :: 0.1 to 1 µM
4. CNC(=O)c1c(C)cccc1Nc1nc(Nc2ccc3c(c2)CCOC(=O)N3C)ncc1Cl :: 0.1 to 1 µM
5. CNC(=O)c1cccc(OC(F)(F)F)c1Nc1nc(Nc2ccc3c(c2)CCOC(=O)N3C)ncc1Cl :: > 10 µM
6. C#CCNC(=O)c1cccc(F)c1Nc1nc(Nc2ccc3c(c2)N(C(=O)CN(C)C)CCCC3(C)C)ncc1Cl :: 0.1 to 1 µM
7. COc1cc2c(cc1Nc1ncc(Cl)c(Nc3ccccc3S(=O)(=O)N3CCC(O)C3)n1)CCN(CC(C)O)CC2 (stereo not shown) :: < 0.1 µM

###

Reported pIC50 by item:
ASSAYED_TARGET: c-Met (cytoplasmic domain) (Homo sapiens, UniProt P08581)
Construct: 10 ng/mL c-Met (cytoplasmic domain, Invitrogen Corporation #PV3143); purchased Invitrogen Corporation PV3143
Sequence (P08581 956-1390 limits assumed): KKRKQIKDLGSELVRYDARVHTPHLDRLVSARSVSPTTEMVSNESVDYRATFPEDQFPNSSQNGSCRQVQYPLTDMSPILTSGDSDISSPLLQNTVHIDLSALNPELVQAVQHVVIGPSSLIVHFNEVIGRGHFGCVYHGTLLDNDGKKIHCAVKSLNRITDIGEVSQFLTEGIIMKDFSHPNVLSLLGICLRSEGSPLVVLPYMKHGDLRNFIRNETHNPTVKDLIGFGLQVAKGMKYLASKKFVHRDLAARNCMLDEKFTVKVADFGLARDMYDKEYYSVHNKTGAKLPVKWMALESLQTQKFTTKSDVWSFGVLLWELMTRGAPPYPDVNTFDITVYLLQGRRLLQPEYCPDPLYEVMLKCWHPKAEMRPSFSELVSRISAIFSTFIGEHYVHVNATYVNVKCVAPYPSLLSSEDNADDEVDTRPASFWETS
EXPERIMENTAL_PROTOCOL: c-Met Kinase Assay (same methods as for ALK, with modifications)
Format: biochemical
STATED_CONDITIONS: c-Met kinase inhibition, 1 μM ATP (Km level); read-out: cMet Activity
pIC50: −log10 of the molar value. Structures can show the parent of a compound that is named as a salt.
MEASURE: pIC50

1. CNC(=O)c1ccccc1Nc1nc(Nc2ccc3c(c2)C(C)(C)CCC(=O)N3C)ncc1Cl :: > 7.00
2. CNC(=O)c1cc(C)ccc1Nc1nc(Nc2ccc3c(c2)CCN(CCOC)CC3)ncc1Cl :: > 7.00
3. CCN1CCc2ccc(Nc3ncc(Cl)c(N[C@@H]4CCCC[C@H]4NS(C)(=O)=O)n3)cc2CC1 :: 6.00 to 7.00
4. CN1CCN(C)c2cccc(Nc3ncc(Cl)c(N[C@@H]4CCCC[C@H]4NS(C)(=O)=O)n3)c2C1=O :: 5.00 to 6.00
5. CCN1C(=O)CCCc2ccc(Nc3ncc(Cl)c(Nc4c(F)cccc4C(=O)NC)n3)cc21 :: > 7.00
6. CCN1CCc2ccc(Nc3ncc(Cl)c(NCCNS(C)(=O)=O)n3)cc2CC1 :: 5.00 to 6.00
7. NC(=O)[C@@H]1[C@H](Nc2nc(Nc3ccc4c(c3)CCC(=O)CC4)ncc2Cl)[C@H]2C=C[C@@H]1C2 (relative stereo) [Example 173, hydrochloride] :: 6.00 to 7.00

###

ASSAYED_TARGET: c-Met (cytoplasmic domain) (Homo sapiens, UniProt P08581)
Construct: 10 ng/mL c-Met (cytoplasmic domain, Invitrogen Corporation #PV3143); purchased Invitrogen Corporation PV3143
EXPERIMENTAL_PROTOCOL: c-Met Kinase Assay (same methods as for ALK, with modifications)
Assay type: biochemical
STATED_CONDITIONS: 1 μM ATP (Km level); read-out: cMet Activity (c-Met Kinase Inhibition, IC50)
Reported IC50 by item:
MEASURE: IC50

1. CCN1C(=O)CCC(C)(C)c2ccc(Nc3ncc(Cl)c(Nc4ccc(N5CCOCC5)cc4S(=O)(=O)N(C)C)n3)cc21 :: 1 to 10 µM
2. COCCN1CCc2ccc(Nc3ncc(Cl)c(Nc4ccc(N(C)C)cc4S(=O)(=O)N(C)C)n3)cc2CC1 :: 1 to 10 µM
3. COc1cc2c(cc1Nc1ncc(Cl)c(Nc3ccc(N4CCN(C)CC4)c(C)c3)n1)CCN(CC(F)F)CC2 :: > 10 µM
4. CCNC(=O)c1ccccc1Nc1nc(Nc2cc3c(cc2OC)CCN(CC(C)(F)F)CC3)ncc1Cl :: > 10 µM
5. COc1cc2c(cc1Nc1ncc(F)c(Nc3ccc(N4CCOCC4)cc3OC)n1)CCN(CC(N)=O)CC2 :: > 10 µM
6. CCNC(=O)c1ccccc1Nc1nc(Nc2cccc3c2OCCCC3(C)C)ncc1Cl :: > 10 µM
7. CNC(=O)[C@@H]1[C@H](Nc2nc(Nc3ccc4c(c3)C(C)(C)CCC(=O)N4)ncc2Cl)[C@H]2C=C[C@@H]1C2 (relative stereo) :: 0.1 to 1 µM

###

Reported pIC50 by item:
ASSAYED_TARGET: baculovirus-expressed ALK (Homo sapiens)
Construct: host or cells: baculovirus expression system
EXPERIMENTAL_PROTOCOL: ALK Kinase Assay (ELISA-type, time-resolved fluorescence)
Assay type: biochemical
STATED_CONDITIONS: 1 μM ATP (Km level), 30 ng/ml ALK, 37° C., 15 minutes; read-out: ALK Activity (ALK kinase inhibition, IC50 class)
pIC50: −log10 of the molar value.
MEASURE: pIC50

1) CNC(=O)c1cc(-c2cnn(C)c2)cc(F)c1Nc1nc(Nc2ccc3c(c2)CCN(CCOC)CC3)ncc1Cl [Example 1423] :: > 7.00
2) CNC(=O)c1cccc(F)c1Nc1nc(Nc2ccc3c(c2)NC(=O)CCC3)ncc1Cl [Example 1375] :: 6.00 to 7.00
3) CCN1C(=O)C(NC(=O)C(F)(F)F)CCc2c1ccc(Nc1ncc(Cl)c(Nc3ccccc3S(=O)(=O)C(C)C)n1)c2OC (stereo not shown) [Example 1333] :: > 7.00
4) Cc1cccnc1-c1ccccc1Nc1nc(Nc2ccc3c(c2)CCC(O)CC3)ncc1Cl (stereo not shown) [Example 1021] :: 6.00 to 7.00
5) COc1cc2c(cc1Nc1ncc(Cl)c(N[C@H]3[C@@H](C(N)=O)[C@@H]4C=C[C@H]3C4)n1)CCC(NCCO)CC2 (single isomer, unassigned) [Example 1097] :: > 7.00
6) CNC(=O)CN1CCc2cc(Nc3ncc(Cl)c(N[C@H]4[C@@H](C(N)=O)[C@@H]5C=C[C@H]4C5)n3)c(OC)cc2CC1 [Example 1124] :: > 7.00
7) COCCN1CCc2ccc(Nc3ncc(Cl)c(Nc4c(F)cccc4OCC4CCOC4)n3)cc2CC1 (stereo not shown) [Example 1275] :: 5.00 to 6.00

###

ASSAYED_TARGET: baculovirus-expressed ALK (Homo sapiens, UniProt Q9UM73)
Construct: host or cells: baculovirus expression system
EXPERIMENTAL_PROTOCOL: ALK Kinase Assay (ELISA-type, time-resolved fluorescence)
Format: biochemical
STATED_CONDITIONS: 1 μM ATP (Km level), 30 ng/ml ALK, 37° C., 15 minutes; read-out: ALK Activity (ALK kinase inhibition, IC50 class)
Reported IC50 by item:
MEASURE: IC50

1. CNC(=O)c1cccc(F)c1Nc1nc(Nc2ccc3c(c2)-n2cccc2C=CO3)ncc1Cl [Example 1269] :: 0.1 to 1 µM
2. COc1cc2c(cc1Nc1ncc(Cl)c(N[C@@H]3CCCC[C@H]3NS(C)(=O)=O)n1)CCC(NCCO)CC2 (single isomer, unassigned) [Example 1094] :: < 0.1 µM
3. CCN1C(=O)CCC(C)(C)c2ccc(Nc3ncc(Cl)c(Nc4c(F)cccc4S(=O)(=O)C(C)C)n3)cc21 [Example 1252] :: < 0.1 µM
4. COc1cc2c(cc1Nc1ncc(Cl)c(N[C@H]3[C@@H](C(N)=O)[C@@H]4C=C[C@H]3C4)n1)CCC(NCC(F)F)CC2 (single isomer, unassigned) [Example 1053] :: < 0.1 µM
5. COCCN1CCc2ccc(Nc3ncc(Cl)c(Nc4ccccc4OCC(N)=O)n3)cc2CC1 [Example 1241] :: 0.1 to 1 µM
6. COc1cc2c(cc1Nc1ncc(Cl)c(Nc3ccccc3S(=O)(=O)N(C)C)n1)CCN(C(=O)CN1CCOCC1)CC2 [Example 1192] :: < 0.1 µM
7. CCN1C(=O)C(N)CCc2c1ccc(Nc1ncc(Cl)c(Nc3ccc(N(C)C)cc3OC)n1)c2OC (centres unmarked) [Example 1343] :: < 0.1 µM
8. CCNC(=O)c1cccc(F)c1Nc1nc(Nc2ccc3c(c2)C(C)(C)CCC(=O)N3C)ncc1Cl [Example 1366] :: < 0.1 µM
9. COc1cc2c(cc1Nc1ncc(Cl)c(N[C@H]3[C@@H](C(N)=O)[C@@H]4C=C[C@H]3C4)n1)CCN(CC(=O)N1CCCC1)CC2 [Example 1159] :: < 0.1 µM
10. CCN1C(=O)C(NC(=O)COC)CCc2c1ccc(Nc1ncc(Cl)c(Nc3ccccc3S(=O)(=O)N(C)C)n1)c2OC (centres unmarked) [Example 1352] :: < 0.1 µM
11. CCCNC(=O)c1ccccc1Nc1nc(Nc2ccc3c(c2)C(C)(C)CCC(=O)N3)ncc1Cl [Example 1022] :: < 0.1 µM
12. COc1ccc2c(c1Nc1ncc(Cl)c(Nc3ccccc3S(=O)(=O)N(C)C)n1)CCC(N1CCOCC1)CC2 (centres unmarked) [Example 1072] :: 0.1 to 1 µM
13. CNC(=O)c1cc(-c2cnn(C)c2)cc(F)c1Nc1nc(Nc2ccc3c(c2)OCCCN3C(=O)OC)ncc1Cl [Example 1434] :: < 0.1 µM
14. COCCN1CCc2ccc(Nc3ncc(Cl)c(Nc4c(F)cccc4OC4CCOC4)n3)cc2CC1 (centres unmarked) [Example 1274] :: 0.1 to 1 µM
